The origin of these recorded values is patent US8178534B2.

Molecular target: cMET enzyme (amino acids 1023-1360) (Homo sapiens, UniProt P08581)
Construct: The cMET enzyme (amino acids 1023-1360) nominally at 24 μM was held at −80° C. until use; His tag (N, cleaved yes); made in house; host or cells: Sf9 cells
Sequence (P08581 1023-1360): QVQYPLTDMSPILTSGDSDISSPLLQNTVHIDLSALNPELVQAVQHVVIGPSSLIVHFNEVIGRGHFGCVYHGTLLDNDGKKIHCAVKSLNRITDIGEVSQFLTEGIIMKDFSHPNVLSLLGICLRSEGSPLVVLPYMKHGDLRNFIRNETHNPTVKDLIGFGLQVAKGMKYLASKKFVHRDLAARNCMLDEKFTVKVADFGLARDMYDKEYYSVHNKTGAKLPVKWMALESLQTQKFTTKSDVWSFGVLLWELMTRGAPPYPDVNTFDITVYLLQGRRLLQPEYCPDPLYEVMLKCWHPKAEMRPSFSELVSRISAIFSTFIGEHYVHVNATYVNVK
Test: Determination of inhibition of cMET (capillary electrophoresis, phosphorylated peptide product)
Type: biochemical
Conditions: 1.2 nM cMET, 50 μM ATP, 2 μM FL-2 peptide, 2 hours room temperature
Counter-ions that a name gives are not always drawn.
reported property: IC50

Known results for compounds:
> print(dat)
                                   compound  reported.property  recorded.value
1  NC(=O)c1ccc(-c2ccc3nnc(C(F)(F)c4ccc5nc(NC(=O)C6CC6)cn5n4)n3c2)cc1               IC50         < 30 nM
2  Cn1cc(-c2ccc3nnc(Sc4ccc5nc(NC(=O)C6CC6)cn5n4)n3c2)ccc1=O               IC50         < 30 nM
3  CC(c1ccc2nc(NC(=O)C3CC3)cn2n1)c1nnc2ccc(-c3cccc(S(C)(=O)=O)c3)cn12 (stereo not shown)               IC50         < 30 nM

In the following, a different compound is considered.
Input O=C(Nc1cn2nc(Sc3nnc4ccccn34)ccc2n1)C1CC1 [3 (HCl Salt)] . Output IC50: > 100 nM
